Target: UniProt:P27338
Sequence (P27338 whole entry): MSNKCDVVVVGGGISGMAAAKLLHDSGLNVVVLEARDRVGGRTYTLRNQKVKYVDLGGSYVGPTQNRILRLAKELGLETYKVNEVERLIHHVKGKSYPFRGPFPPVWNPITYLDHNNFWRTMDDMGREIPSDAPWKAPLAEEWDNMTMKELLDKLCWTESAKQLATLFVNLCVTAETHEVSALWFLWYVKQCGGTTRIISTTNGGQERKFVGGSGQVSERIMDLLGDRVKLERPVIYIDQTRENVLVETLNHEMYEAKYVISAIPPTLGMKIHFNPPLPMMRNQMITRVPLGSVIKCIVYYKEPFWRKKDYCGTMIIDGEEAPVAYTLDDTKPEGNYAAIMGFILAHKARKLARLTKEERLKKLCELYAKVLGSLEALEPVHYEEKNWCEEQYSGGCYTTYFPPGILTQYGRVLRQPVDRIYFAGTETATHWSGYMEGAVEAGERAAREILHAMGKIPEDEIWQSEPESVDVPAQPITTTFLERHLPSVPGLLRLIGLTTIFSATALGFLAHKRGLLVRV
experimental endpoint: pIC50
FYI, pIC50 means -log10 of a concentration in mol per litre.

Any idea what pIC50 came out for CCOc1ccc(-c2c(CN(C)CCNC)cn3c2-c2cc(OCC)c(OCC)cc2CC3)cc1OCC.O=C(O)/C=C/C(=O)O [Compound 17a] on UniProt:P27338?
4.84

====

Tested on: HeLa (adenocarcinoma of the cervix uterus) cells
Assay: Cytotoxicity, MTT assay, HeLa cells
Type: cell-based
Details: Homo sapiens, read-out: IC50, 50% inhibition of the cell population growth, 72 h, mean ± SD
Parameter IC50: see the listing below.
Field: numeric (µM). Do not append units.

INSERT INTO measurements (compound, experimental_result) VALUES
  ('COc1cc2c(cc1OC)-c1c(-c3ccc(F)cc3)c(C=O)cn1CC2', 33.8);

Recorded IC50 for COc1ccc(/N=C/c2cn3c(c2-c2ccc(F)cc2)-c2cc(OC)c(OC)cc2CC3)cc1 , please?
87.2

Requested field: IC50. Item: CCOc1ccc(-c2c(/C=N/c3ccc(OC)cc3)c(-c3ccccc3)n3c2-c2cc(OCC)c(OCC)cc2CC3)cc1OCC
304

For the compound CCOc1ccc(-c2c(/C=N/CC/N=C/c3cn4c(c3-c3ccc(OCC)c(OCC)c3)-c3cc(OCC)c(OCC)cc3CC4)cn3c2-c2cc(OCC)c(OCC)cc2CC3)cc1OCC , what IC50 is on record?
84

Form field: reported IC50 of COc1cccc2c1C(=O)c1c(O)c3c(c(O)c1C2=O)C[C@@](O)(C(=O)CO)C[C@@H]3O[C@H]1C[C@H](N)[C@H](O)[C@H](C)O1 [Doxorubicin, reference compound]
0.892

Suppose we examine the compound CCOc1ccc(-c2c(/C=N/c3ccc(OC)cc3)cn3c2-c2cc(OCC)c(OCC)cc2CC3)cc1OCC ; what IC50 value has been reported?
34.9

====

Here, each record is paired with measured pIC50 data.
Molecular target: β-amyloid (Aβ)1–40 self-aggregation (Homo sapiens)
Construct: self-aggregation of Aβ peptides 1–40 (Aβ40)
Sequence (P05067 672-711 limits assumed): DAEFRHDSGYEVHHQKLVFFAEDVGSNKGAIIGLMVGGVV
Test: Inhibition of self-induced Aβ40 aggregation, thioflavin T fluorescence
Assay type: biochemical
Conditions: Aβ40 30 μM, 2% HFIP, PBS pH 7.4, 2 h, ThT; mean ± SD (n = 3)
The quantity pIC50 is defined as the negative base-10 logarithm of the molar concentration.

Consider the following illustrative entries.
INSERT INTO measurements (compound, experimental_result) VALUES
  ('CCOc1ccc(-c2c(/C=N/c3ccc(OC)cc3)cn3c2-c2cc(OCC)c(OCC)cc2CC3)cc1OCC', 4.11),
  ('COc1cc2c(cc1OC)-c1c(-c3ccc(Cl)cc3)c(C=O)cn1CC2', 4.18),
  ('COc1cc2c(cc1OC)-c1c(-c3ccc(Cl)cc3)c(/C=N/c3ccc(/N=C/c4c(-c5ccc(Cl)cc5)c5n(c4-c4ccccc4)CCc4cc(OC)c(OC)cc4-5)cc3)c(-c3ccccc3)n1CC2 [Compound 15a]', 4.30);

Continue with the next compound.
Requested read-out: pIC50. Entry: COc1ccc(/N=C/c2cn3c(c2-c2ccc(F)cc2)-c2cc(OC)c(OC)cc2CC3)cc1
4.27

====

Biological target: human acetylcholinesterase (AChE) (Homo sapiens)
Sequence (P22303 32-614): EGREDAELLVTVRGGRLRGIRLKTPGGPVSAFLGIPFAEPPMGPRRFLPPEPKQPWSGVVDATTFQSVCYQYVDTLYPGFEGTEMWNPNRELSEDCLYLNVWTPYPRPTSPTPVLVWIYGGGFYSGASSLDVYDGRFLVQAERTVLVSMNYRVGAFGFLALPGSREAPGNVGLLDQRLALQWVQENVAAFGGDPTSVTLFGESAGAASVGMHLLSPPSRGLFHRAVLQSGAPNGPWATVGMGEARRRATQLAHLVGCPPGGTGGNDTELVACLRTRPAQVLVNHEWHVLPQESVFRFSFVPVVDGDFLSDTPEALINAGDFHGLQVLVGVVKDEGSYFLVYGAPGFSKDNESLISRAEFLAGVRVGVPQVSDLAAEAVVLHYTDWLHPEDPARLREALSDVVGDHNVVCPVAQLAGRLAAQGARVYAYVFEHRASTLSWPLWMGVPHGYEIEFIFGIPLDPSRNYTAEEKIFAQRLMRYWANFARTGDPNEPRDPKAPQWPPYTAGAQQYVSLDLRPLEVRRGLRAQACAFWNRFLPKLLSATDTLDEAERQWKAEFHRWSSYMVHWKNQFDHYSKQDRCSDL
Experiment: biochemical
Settings: at 10 μM, mean ± SD (n = 3); read-out: % inhibition hAChE
experimental endpoint: inhibition at 10 µM (%)
Return type: number; implicit unit %.

// below: answered compounds
INSERT INTO assay_data (compound, unit_tag, experimental_result) VALUES
  ('CCOc1ccc(-c2c(/C=N/CC/N=C/c3cn4c(c3-c3ccc(OCC)c(OCC)c3)-c3cc(OCC)c(OCC)cc3CC4)cn3c2-c2cc(OCC)c(OCC)cc2CC3)cc1OCC', '%', 37),
  ('CCOc1ccc(-c2c(/C=N/CCCN(C)C)cn3c2-c2cc(OCC)c(OCC)cc2CC3)cc1OCC.Cl.Cl [Compound 16a]', '%', 32),
  ('COc1cc2c(cc1OC)-c1c(-c3ccc(Cl)cc3)c(/C=N/c3ccc(/N=C/c4c(-c5ccc(Cl)cc5)c5n(c4-c4ccccc4)CCc4cc(OC)c(OC)cc4-5)cc3)c(-c3ccccc3)n1CC2 [Compound 15a]', '%', 25),
  ('COc1ccc(/N=C/c2c(-c3ccc(Cl)cc3)c3n(c2-c2ccccc2)CCc2cc(OC)c(OC)cc2-3)cc1', '%', 35),
  ('COc1cc2c(cc1OC)-c1c(-c3ccc(F)cc3)c(C=O)cn1CC2', '%', 33),
  ('COc1cc2c(cc1OC)-c1c(-c3ccc(Cl)cc3)c(C=O)cn1CC2', '%', 32);

Given COc1ccc(/N=C/c2cn3c(c2-c2ccc(F)cc2)-c2cc(OC)c(OC)cc2CC3)cc1 , state its recorded inhibition at 10 µM.
40
